Just for reference, PubChem BioAssay AID1963959 is where these values come from.

- System: T-47D spheroids with HUVEC/MSC, viability
- MEASUREMENT_DESCRIPTION: Anticancer human tumor T-47D cell line growth inhibition [PI3K];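 further: spheroids exposed to agents for seven days before reading; percent of DMSO vehicle control luminescence so 100% = untreated growth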
- MEASUREMENT_CONDITIONS: second compound 0.00316 µM; first compound 10 µM; hits give low values
viability, T/C under 90% gets 1, anything at or over 90% gets -1.

[
  {
    "COMPOUND": "C#Cc1c(F)ccc2cc(O)cc(-c3ncc4c(N5CC6CCC(C5)N6)nc(OCC56CCCN5CC(F)C6)nc4c3F)c12 (configuration not stated) + COc1c(OCCCN2CCOCC2)ccc2c3n(c(=NC(=O)c4cnc(N)nc4)nc12)CCN3",
    "CLASS_ASSIGNMENT": -1
  }
]

Please state whether viability, T/C is below 90% for Cn1ncc(Cl)c1-c1cc(C(=O)NC(CN)Cc2cccc(F)c2)sc1Cl (configuration not stated) + CC(Nc1ccc2c(c1)OCCn1cc(N3C(=O)OCC3C(F)F)nc1-2)C(N)=O
1

Please state whether viability, T/C is below 90% for CC(C)NCC(C(=O)N1CCN(c2ncnc3c2C(C)CC3O)CC1)c1ccc(Cl)cc1 (configuration not stated) + COc1c(OCCCN2CCOCC2)ccc2c3n(c(=NC(=O)c4cnc(N)nc4)nc12)CCN3
1

Please state whether viability, T/C is below 90% for CNC(=O)c1ccc(N2C(=S)N(c3ccc(C#N)c(C(F)(F)F)c3)C(=O)C2(C)C)cc1F + COc1c(OCCCN2CCOCC2)ccc2c3n(c(=NC(=O)c4cnc(N)nc4)nc12)CCN3
1

Please state whether viability, T/C is below 90% for C[C@@H](NC(=O)c1ncnc(N)c1Cl)c1ncc(C(=O)Nc2cc(C(F)(F)F)c(Cl)cn2)s1 + CC(Nc1ccc2c(c1)OCCn1cc(N3C(=O)OCC3C(F)F)nc1-2)C(N)=O
-1

Please state whether viability, T/C is below 90% for CCCS(=O)(=O)Nc1ccc(F)c(C(=O)c2c[nH]c3ncc(-c4ccc(Cl)cc4)cc23)c1F + CC(Nc1ccc2c(c1)OCCn1cc(N3C(=O)OCC3C(F)F)nc1-2)C(N)=O
1

Please state whether viability, T/C is below 90% for CC1(C)CCC(Nc2ncc(C(F)(F)F)c(-c3c[nH]c4c(P(C)(C)=O)c(C#N)ccc34)n2)CN1 (configuration not stated) + CC(Nc1ccc2c(c1)OCCn1cc(N3C(=O)OCC3C(F)F)nc1-2)C(N)=O
1

Please state whether viability, T/C is below 90% for CCCS(=O)(=O)Nc1ccc(F)c(C(=O)c2c[nH]c3ncc(-c4ccc(Cl)cc4)cc23)c1F + COc1c(OCCCN2CCOCC2)ccc2c3n(c(=NC(=O)c4cnc(N)nc4)nc12)CCN3
1

Please state whether viability, T/C is below 90% for CC1(C)CCC(CN2CCN(c3ccc(C(=O)NS(=O)(=O)c4ccc(NCC5CCOCC5)c([N+](=O)[O-])c4)c(Oc4cnc5[nH]ccc5c4)c3)CC2)=C(c2ccc(Cl)cc2)C1 + CC(Nc1ccc2c(c1)OCCn1cc(N3C(=O)OCC3C(F)F)nc1-2)C(N)=O
1

Please state whether viability, T/C is below 90% for CC(Cn1ccc(-c2ccc(C#N)c(Cl)c2)n1)NC(=O)c1cc(C(C)O)[nH]n1 (configuration not stated) + CC(Nc1ccc2c(c1)OCCn1cc(N3C(=O)OCC3C(F)F)nc1-2)C(N)=O
1

Please state whether viability, T/C is below 90% for Cn1nccc1Nc1nccc(-c2ccn(C(CO)c3ccc(Cl)c(F)c3)c(=O)c2)n1 (configuration not stated) + CC(Nc1ccc2c(c1)OCCn1cc(N3C(=O)OCC3C(F)F)nc1-2)C(N)=O
-1
